- Test system: MCF7
- Experiment Description: Cytotoxicity against human MCF7 cells with low TrxR expression assessed as reduction in cell viability incubated for 48 hrs by MTT assay
- Assay type: functional, cell-based
- Measurement Context: MCF7, 48 h
Measurement Label: pIC50
pIC50 here: minus log base 10 of the concentration, concentration in moles per litre.

Known pIC50 results, listed for orientation:
COc1ccc(C[C@H](NC(=O)OC2CSSC2)C(=O)N[C@H]2[C@@H](O)[C@H](n3cnc4c(N(C)C)ncnc43)O[C@@H]2CO)cc1
4.85
COc1ccc(C[C@H](NC(=O)OCCSSCCO)C(=O)N[C@H]2[C@@H](O)[C@H](n3cnc4c(N(C)C)ncnc43)O[C@@H]2CO)cc1
4.56

Query :: # lookup: pIC50 of COc1ccc(C[C@H](N)C(=O)N[C@H]2[C@@H](O)[C@H](n3cnc4c(N(C)C)ncnc43)O[C@@H]2CO)cc1 [PUROMYCIN]
Result :: 5.97
